Reference for the values: the RepoRT retention time repository

Assay: RP, Waters ACQUITY UPLC BEH C18, 50 × 2.1 mm, 1.7 µm, 40 °C, 0.6 mL/min, estimated dead time 0.18 min; A: water + 0.1% formic acid, pH 3; B: acetonitrile + 0.1% formic acid, pH 3; gradient (min/%B) 0/5 7/100 8/100
Conditions: stereoisomer not certain
LC retention time below 2 min gives n; LC retention time at or above it gives y.

Compound	Classification
C=C1C(=O)O[C@@H]2C[C@@]3(C)CCCC(=C)[C@@H]3C[C@H]12	y
C[C@@H]1O[C@@H](O[C@@H]2C(O[C@H]3CC[C@@]4(C)C(CC[C@]5(C)C4CC=C4C6CC(C)(C)CC[C@]6(C(=O)O)CC[C@]45C)[C@]3(C)CO)OC[C@@H](OC3O[C@H](CO)[C@@H](O)[C@H](O)[C@H]3O)[C@H]2O)[C@H](O)[C@H](O[C@@H]2OC[C@@H](O)[C@H](O)[C@H]2O)[C@H]1O (some centres not stated)	y
C/C=C1/C2C=C(C)CC1(N)c1ccc(=O)[nH]c1C2 (configuration not stated)	n
CCCCCCCCC/C=C\CCCC[C@@H]1CCC[C@@H](C)N1 [(2R,6R)-2-methyl-6-[(5Z)-pentadec-5-en-1-yl]piperidine]	y
CC12CCCc3coc(c31)C(=O)c1cc3c(cc12)C(=O)C=CC3=O (configuration not stated)	y
C/C=C1/CN(C)C[C@H]2Cc3c([nH]c4ccccc34)C(=O)C[C@@H]12	n
COC(=O)C1=C2CCC3=C2C2(C1)C1(C)CCC4C(C)CN(CC1CC3)C42O (configuration not stated)	y

* * *

Test: RP, Waters ACQUITY UPLC BEH C18, 50 × 2.1 mm, 1.7 µm, 40 °C, 0.6 mL/min, estimated dead time 0.18 min; A: water + 0.1% formic acid, pH 3; B: acetonitrile + 0.1% formic acid, pH 3; gradient (min/%B) 0/5 7/100 8/100
Conditions: stereoisomer not certain
In this section we review reported LC retention time values for a set of molecules.
Measure: LC retention time (min)

Molecule	Number
C=C1CCC2(OC1)OC1CC3C4C(O)C(=O)C5(O)C(O)C(O)C(O)C(O)C5(C)C4CCC3(C)C1C2C (stereo not given)	3.04
C/C=C/C(=O)CC1C(=O)C=CC1(CCCCCCCC(=O)O)OC(C)=O (stereo not given)	2.74
C[C@@H]1O[C@H](O[C@@H]2[C@@H](O)[C@H](OCCc3ccc(O)c(O)c3)O[C@H](CO)[C@H]2OC(=O)/C=C/c2ccc(O)c(O)c2)[C@H](O)[C@H](O)[C@H]1O	0.258
C/C=C/C(CC1C(=O)C=CC1(O)CCCCCCCC(=O)O)OC(C)=O (stereo not given)	2.88
COc1cc2c(cc1O)C(Cc1ccc(O)cc1)NCC2 (stereo not given)	1.05
CC1CCC2(C)C(CCC3OC32C)C1(C)CC(=O)c1ccoc1 (stereo not given)	3.41
CC(=O)OC(C)(C)C=CC(=O)C(C)(O)C1C(O)CC2(C)C3CC=C4C(=COC(=O)C4(C)C)C3(C)C(=O)CC12C (stereo not given)	3.14
COc1cc(CC(CO)C(CO)Cc2ccc(O)c(OC)c2)ccc1O (stereo not given) [2,3-bis[(4-hydroxy-3-methoxyphenyl)methyl]butane-1,4-diol]	0.28
CCN1CC2(COC(=O)c3ccccc3NC(=O)CCC(=O)O)CCC(OC)C34C5CC6C(OC)CC(O)(C5C6OC)C(O)(C(OC)C23)C14 (stereo not given)	2.22
COc1cc2c(cc1O)CC1NCCc3cc(O)c(OC)c-2c31 (stereo not given)	1.11
C=C1[C@@H](O)C[C@H]2[C@](C)(CO)CCC[C@]2(C)[C@H]1CC1C(C)=CCC2C(=O)C(OC)=CC(=O)C21c1cc(=O)c2c(O)cc(O)cc2o1 (stereo not given in full)	3.02
CC(=O)OC(C)(C)/C=C/C(=O)[C@](C)(O)[C@H]1[C@H](O)C[C@@]2(C)[C@@H]3CC=C4C(C=C(O)C(=O)C4(C)C)[C@]3(C)C(=O)C[C@]12C (stereo not given in full)	3.63
COC(=O)C1=CC(O)C23OOC1CC2(C)CCC3C(C)C (stereo not given)	3.72
C=C1[C@@H](O)C[C@@H]2[C@](C)(CCC[C@@]2(C)C(=O)O)[C@H]1CC1C(C)=CCC2C(=O)C(OC)=CC(=O)C21c1cc(=O)c2c(O)cc(O)cc2o1 (stereo not given in full)	2.95
CC(=O)OC(C)(C)/C=C/C(=O)[C@](C)(O)[C@H]1[C@H](O)C[C@@]2(C)C3CC=C4C(CC(=O)C(O)C4(C)C)[C@]3(C)C(=O)C[C@]12C (stereo not given in full)	2.88

* * *

Assay: RP, Waters ACQUITY UPLC BEH C18, 50 × 2.1 mm, 1.7 µm, 40 °C, 0.6 mL/min, estimated dead time 0.18 min; A: water + 0.1% formic acid, pH 3; B: acetonitrile + 0.1% formic acid, pH 3; gradient (min/%B) 0/5 7/100 8/100
Conditions: stereoisomer not certain
Measure: LC retention time (min)

> print(dat)
                                   molecule            measure  number
1  COC(=O)C1=COC(C)C2CN3CCC4(C(=O)Nc5ccccc54)C3CC12 (stereo not drawn)  LC retention time    1.69
2  CC1(C(=O)O)CCCC2(C)C3CCC4CC3(C=C4CO)CCC12 (stereo not drawn)  LC retention time    3.51
3  CC(C)=CC(O)C[C@@H](C)[C@H]1CC[C@@]2(C)C3C(=O)C=C4C(CCC(O)C4(C)C)[C@]3(C)CC[C@]12C (stereo partly drawn)  LC retention time    4.38
4  C=C[C@H]1CN2CCC3c4ccccc4NC3[C@H]2C[C@@H]1/C(=C\OC)C(=O)OC (stereo partly drawn)  LC retention time    2.64
5  COc1ccc2cc1-c1cc(ccc1O)C[C@@H]1NCCc3cc4c(cc31)Oc1c(c(OC)c(O)c3c1[C@H](C2)N(C)CC3)O4  LC retention time    1.69
6  CCC(O)C(/C=C1\C(=O)C=CC1(O)CCCCCCCC(=O)OC)OC(C)=O (stereo not drawn)  LC retention time    3.08
7  CC[C@@]12CC(C(=O)OC)=C3Nc4ccccc4[C@@]34CCN(C[C@H]3O[C@H]31)C24 (stereo partly drawn)  LC retention time    1.96
8  C[C@@H]1CC2(NCCS2)[C@]2(O)OC3C[C@@]4(C=O)C(CCC5C4CC[C@]4(C)C(C6=CC(=O)OC6)CC[C@]54O)CC3OC2O1 (stereo partly drawn)  LC retention time   0.611

* * *

Assay: RP, Waters ACQUITY UPLC BEH C18, 50 × 2.1 mm, 1.7 µm, 40 °C, 0.6 mL/min, estimated dead time 0.18 min; A: water + 0.1% formic acid, pH 3; B: acetonitrile + 0.1% formic acid, pH 3; gradient (min/%B) 0/5 7/100 8/100
Conditions: stereoisomer not certain
Measure: LC retention time

Compound	Result
CCCCCCCCCCCCO[C@@H]1O[C@@H](C)[C@H](OC(C)=O)[C@@H](O[C@@H]2O[C@@H](C)[C@H](OC(C)=O)[C@@H](O[C@@H]3O[C@@H](C)[C@H](OC(C)=O)[C@@H](O)[C@H]3O)[C@H]2OC(C)=O)[C@H]1O	6.32 min
C=CC12CN(C)C3C4COC(C[C@@H]41)[C@]1(C(=O)Nc4ccccc41)C32 (stereo not given in full)	1.01 min
C=C(C(=O)C(OC(C)=O)C(C)C1C(OC(C)=O)CC2(C)C3CCC4C(C)C(=O)C=CC45CC35CCC12C)C(C)C (stereo not given)	5.46 min
C[C@@H]1CC2(NCCS2)[C@]2(O)OC3C[C@@]4(C=O)C(CCC5C4CC[C@]4(C)C(C6=CC(=O)OC6)CC(O)[C@]54O)CC3OC2O1 (stereo not given in full)	0.365 min
C=C1[C@@H](O)C[C@H]2C(C)(C)CCC[C@]2(C)[C@H]1CC1C(C)=CCC2C(=O)C(OC)=CC(=O)C21c1cc(=O)c2c(O)cc(O)cc2o1 (stereo not given in full)	2.12 min
CCCCCCCCCCC/C=C\CC[C@@H]1CCC[C@@H](C)N1 [(2R,6S)-2-methyl-6-[(3Z)-pentadec-3-en-1-yl]piperidine]	4.84 min
C=C1COC(=O)C12C[C@@]1(C)C([C@@H](OC(=O)/C=C/SC)CC[C@@H]1C)[C@H]2OC(=O)/C(C)=C\C (stereo not given in full)	4.71 min
COc1cc2c3c(c1OC)Oc1ccc(cc1)CC1c4c(cc(OC)c5c4Oc4ccc(cc4CO5)CC3N(C)CC2)CCN1C (stereo not given)	1.6 min
COc1cc2c3c(c1OC)Oc1ccc(cc1)CC1c4c(cc(OC)c(OC)c4Oc4ccc(cc4)CC3N(C)CC2)CCN1C (stereo not given)	1.79 min
CC1=CC2CC(C)C(CO)/C=C(\C)C(O)C(=O)/C=C(\C)CCC12 (stereo not given)	4.1 min
COc1cc2c(cc1O)C(Cc1ccc(OC3=CC4(C=CC3=O)CC3c5c(cc(OC)c(OC)c54)CCN3C)cc1)N(C)CC2 (stereo not given)	1.59 min
CC[C@@H]1C(=O)N2CCc3c([nH]c4ccccc34)[C@H]2CC1/C(=C\OC)C(=O)OC (stereo not given in full)	2.38 min
CC1CC2CCCC3N4C(=O)CCCC4CC(C1)N23 (stereo not given)	0.978 min
COc1cc(O)c2c(c1)C(=O)c1cc(C)cc(O)c1C2=O	4.7 min
CC[C@]12C=CCN3CC[C@]4(C(=C(C(=O)OC)C1)Nc1ccccc14)C32 (stereo not given in full)	2.17 min
